pIC50: −log10 of the molar value.
Consider the following pIC50 values measured on Human MMP3 (Homo sapiens, UniProt P08254).
Sequence (P08254 100-272 limits assumed): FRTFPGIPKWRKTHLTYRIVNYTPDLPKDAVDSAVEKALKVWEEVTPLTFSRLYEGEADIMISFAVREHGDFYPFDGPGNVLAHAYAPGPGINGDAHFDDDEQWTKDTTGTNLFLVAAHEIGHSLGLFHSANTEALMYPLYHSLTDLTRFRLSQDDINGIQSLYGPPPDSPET
readout_name: pIC50

Consider the worked cases shown below.
>>> result("Cc1cncc(C(CS(=O)(=O)c2ccc(OCc3cc(C)nc4c(F)cccc34)cc2)N(O)C=O)c1 (stereo not drawn)")
5.40
>>> result("Cc1cc(COc2ccc(S(=O)(=O)CC(N(O)C=O)C3(C)CCC4(CC3)OCCO4)cc2)c2ccccc2n1 (stereo not drawn)")
6.22
>>> result("COCc1cc(COc2ccc(S(=O)(=O)CC(C=C3CCC4(CC3)OCCO4)N(O)C=O)cc2)cc(C)n1 (stereo not drawn)")
4.52
>>> result("Cc1cc(COc2ccc(S(=O)(=O)CC(CC3CCN(S(C)(=O)=O)CC3)N(O)C=O)cc2)c2ccccc2n1 (stereo not drawn)")
5.89

1: Cc1cc(COc2ccc(S(=O)(=O)CC(c3cccnc3C)N(O)C=O)cc2)c2ccccc2n1 (stereo not drawn)
2: Cc1cc(COc2ccc(S(=O)(=O)CC(C3CCN(C(=O)OC(C)(C)C)CC3)N(O)C=O)cc2)c2ccccc2n1 (stereo not drawn)
Query: Which item exceeds the other in pIC50, 1 or 2 ? Select an item and report its label.
Response: 2

1: C=C1CCC(C(CS(=O)(=O)c2ccc(OCc3cc(C)nc(C)c3)cc2)N(O)C=O)CC1 (stereo not drawn)
2: COCc1cc(COc2ccc(S(=O)(=O)CC(c3ccccc3C)N(O)C=O)cc2)cc(C)n1 (stereo not drawn)
Query: Short answer wanted: higher pIC50, 1 or 2 ? // caller expects the label of the chosen entry
Response: 1
(1: 5.30, 2: 4.70)

I: Cc1cc(COc2ccc(S(=O)(=O)CC(CN3CCN(CC(C)C)CC3)N(O)C=O)cc2)c2ccccc2n1 (stereo not drawn)
II: CC(=O)N1CCCC(C(CS(=O)(=O)c2ccc(OCc3cc(C)nc4ccccc34)cc2)N(O)C=O)C1 (stereo not drawn)
Query: Of I and II , whose reported pIC50 is the larger number? To answer, give the label that identifies your chosen option.
Response: II

1: Cc1cc(COc2ccc(S(=O)(=O)CC(C=C3CCOCC3)N(O)C=O)cc2)cc(C)n1 (stereo not drawn)
2: CC[C@H](C)[C@H](NC(=O)[C@H](CC(C)C)[C@H](C(C)C)N(O)C=O)C(=O)Nc1ccccn1 [compound 3, reference compound]
Query: Hi there! Just curious which has the higher pIC50 between 1 and 2 . Kindly give the label for the entry you pick.
Response: 2

a: Cc1cc(COc2ccc(S(=O)(=O)CC(CC3CCN(C(=O)c4ccccc4)CC3)N(O)C=O)cc2)c2ccccc2n1 (stereo not drawn)
b: Cc1cc(COc2ccc(S(=O)(=O)CC(c3ccccc3C)N(O)C=O)cc2)c2cccc(F)c2n1 (stereo not drawn)
Query: Would you kindly point out which of a and b has the smaller pIC50 figure? Bench note: the answer is the label of the chosen record.
Response: b
(b: 5.32, a: 6.70)
